Tested on: Escherichia coli TOP10;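 further: peptides expressed intracellularly from a pBAD plasmid library in pooled LB shake-flask culture, induced with 0.3% L-arabinose, DNA abundance read by NGS, three biological replicates, DESeq2 with apeglm shrinkage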
Assay: shrunken log2 fold change of peptide-encoding DNA abundance (4.5 h post-induction vs induction); higher = less antimicrobial activity (less host growth inhibition)
Conditions: time post-induction: 4.5 h; library: site-saturation at positions 5, 18, 19, 20
// thresholds for shrunken log2 fold change classes: low value (below -0.1), medium value (-0.1 to below 0.1), high value (0.1 or more)

Recorded results for 5 sequences are shown here.
RRIRERPPRLPRPRPRPWVFPRP | medium value
RRIRHRPPRLPRPRPRPEIRPRP | medium value
RRIRHRPPRLPRPRPRPPVEPRP | high value
RRIRPRPPRLPRPRPRPVSHPRP | high value
RRIRPRPPRLPRPRPRPQMHPRP | high value

Exercise: Input RRIRTRPPRLPRPRPRPYMIPRP ; output its category
Key: low value

Exercise: Input RRIRCRPPRLPRPRPRPRYGPRP ; output its category
Key: low value
